tested on: RPMI-8226 leukemia; experiment: NCI tumour cell line growth inhibition, 48 h
OBSERVED_PROPERTY: TGI

Answered cases to consult:
1) CCCn1cnc2c(SCC(=O)O)nc(N)nc21 ... > 100 µM
2) N#C/C(=C\c1ccc([N+](=O)[O-])s1)c1nc2cc(Cl)ccc2s1 ... 3.26 µM
3) CC(=O)OC12c3ccccc3C(c3ccccc31)C1C(=O)N(c3ccccn3)C(=O)C12 (stereo not drawn) ... > 100 µM
4) O=c1[nH]c(=O)n(COCCO)c2ccsc12 ... > 100 µM
5) CN(C)CCNC(=O)c1ccc(-c2nc3ccc4[nH]ncc4c3c3c2C2CCC3C2)cc1 (stereo not drawn) ... 4.6 µM
6) [O-][n+]1c(CN2CCCCC2)nc2cccc3c2c1-c1ccccc1-3 ... > 100 µM
7) Cc1cc(C)c2c(n1)sc1c(N)ncnc12 ... > 25 µM

Input line: Recorded TGI for CC(C)(O)C1CC[C@]2(C)[C@H]3CC[C@@H]4[C@@]5(C)CCCC(C)(C)[C@@H]5CC[C@@]4(C)[C@]3(C)CC[C@@H]12 (stereo partly drawn) with RPMI-8226 leukemia, please?
Output line: > 100 µM

====

Each entry below carries its recorded TGI.
system: LXFL 529 NSCLC; experiment: NCI tumour cell line growth inhibition, 48 h

1) N#C/C(=C\c1cccc(O)c1O)C(N)=O ... > 100 µM
2) CN(C)/C=N\c1ccnc(=O)[nH]1 ... > 100 µM

Input line: // returns reported TGI for input CC(C)(C)C(=O)OCC1OC(N=[N+]=[N-])C(OC(=O)C(C)(C)C)C(OC(=O)C(C)(C)C)C1OC(=O)C(C)(C)C (stereo not drawn)
Output line: > 100 µM

====

test system: HS 578T breast; assay: NCI tumour cell line growth inhibition, 48 h
OBSERVED_PROPERTY: TGI (µM)
Report as a plain number; the unit µM is understood.

1. CS(=O)(=O)c1nc(-c2cc3c(c(S(C)(=O)=O)n2)CCC3)cc2c1CCCC2 ... 14.1
2. O=c1c2cc(-c3ccccc3)sc2ncn1Cc1ccc(Cl)c(Cl)c1 ... 45.1

Here is the next item to consider.
Input line: // returns reported TGI for input CC[C@@]1(OC(=O)CN)C(=O)OCc2c1cc1n(c2=O)Cc2c-1nc1cc3c(cc1c2CCl)OCO3
Output line: 5.5

====

system: SW-620 colon; experiment: NCI tumour cell line growth inhibition, 48 h
OBSERVED_PROPERTY: TGI

Answered cases to consult:
1) CSc1nc(NC2OC(COC(C)=O)C(OC(C)=O)C(OC(C)=O)C2OC(C)=O)c(N=C(C)C(C)=O)c(=O)[nH]1 (stereo not drawn) ... > 100 µM
2) Cc1ccc(S(=O)(=O)NC(=O)NC(CCCCN=C(N)N)C(=O)O)cc1 (stereo not drawn) ... > 100 µM
3) Cc1c2c(cc3c1C(=O)C(=O)C1=C3OC[C@@H]1C)C(C)(C)CCC2 ... 28.4 µM
4) O=C(C#Cc1ccccc1)N1c2ccccc2CC1c1c[nH]c2ccccc12 (stereo not drawn) ... 30.3 µM

Input line: // returns reported TGI for input Cc1cccc2nc3c(=O)[nH]c(=O)nc-3n(C)c12
Output line: > 100 µM

Input line: CCCCCCCC(=O)OCCCC1[C@]2(C)CC[C@@]3(C)C([C@H](C)CCC=C(C)C)CC[C@]3(C)C2CC[C@]12OC2(C)C (stereo partly drawn) ?
Output line: > 100 µM

Input line: Cc1ccc(-n2cc(-c3ccc(Cl)cc3)c3c(NN)ncnc32)cc1 ?
Output line: 26.2 µM

Input line: C[S+](C)CC1OC(n2cnc3c(N)ncnc32)C(O)C1O (stereo not drawn) ?
Output line: > 225 µM

====

test system: MOLT-4 leukemia; experiment: NCI tumour cell line growth inhibition, 48 h; in the data active means GI50 below about 0.43 µM; inactive means the rest
Mark one answer only. Choices: y (active), n (inactive)

Solved cases (4 shown):
1) Cc1cn(C2CC(CCCO)C(CO)O2)c(=O)[nH]c1=O (configuration not stated) ... n
2) O=C(/C=C/c1ccc(O)c(O)c1)NCc1c[nH]c2ccccc12 ... n
3) CCCCCCCCOC(=O)c1c(C)[nH]c(/C=C2\N=C(c3ccc[nH]3)C=C2OC)c1C ... y
4) Cc1ncc(C(=O)Nc2ccc(CN3CCN(C)CC3)c(C(F)(F)F)c2)cc1C#Cc1ccc(N)nc1 ... y

Input line: What was the test verdict on CC1CN(S(=O)(=O)c2oc(-c3ccc(Cl)cc3)nc2C#N)CC(C)O1 (configuration not stated) ?
Output line: n

Input line: C=C1C(=O)O[C@H]2[C@H]1CC/C(COC(=O)NCc1ccc(OC)cc1)=C\CC[C@@]1(C)O[C@@H]21 ?
Output line: n

Input line: Cc1cc(Nc2nc(C(=O)Nc3ccccc3)nc3ccccc23)n[nH]1 ?
Output line: n

====

tested on: CAKI-1 renal; experiment: NCI tumour cell line growth inhibition, 48 h
Each entry below carries its recorded TGI.

1. CN1CN(c2ccccc2)C2(CCN(CCCCCCF)CC2)C1=O ... > 100 µM
2. CCCCCCCCOC(=O)c1c(C)[nH]c(/C=C2\N=C(c3ccc[nH]3)C=C2OC)c1C ... 4.83 µM
3. O=S1(=O)N(Cc2ccccc2)[C@@H](Cc2ccccc2)[C@H](O)[C@H](O)[C@H](Cc2ccccc2)N1Cc1ccccc1 ... 7.33 µM
4. Cc1cn(C2CC(CCCO)C(CO)O2)c(=O)[nH]c1=O (stereo not drawn) ... > 100 µM

Input line: // returns reported TGI for input CC(C)OP(=O)(OC(C)C)C1=NN(c2ccc([N+](=O)[O-])cc2)C(P(=O)(OC(C)C)OC(C)C)=NN1c1ccc([N+](=O)[O-])cc1
Output line: > 100 µM

Input line: COC(=O)c1c(CC(Cc2ccc3c(c2)CCCC3)C(=O)OC)ccc2c1CCCC2 (stereo not drawn) ?
Output line: > 100 µM

====

Each entry below carries its recorded TGI.
test system: U251 CNS; test: NCI tumour cell line growth inhibition, 48 h

Answered cases to consult:
1. CCOC(=O)NNC(=O)NCc1ccccc1CNC(=O)NNC(=O)OCC ... > 100 µM
2. NS(=O)(=O)c1ccc(N=Nc2c(O)[nH]c3ccc(C(=O)NCc4ccncc4)cc23)cc1 ... > 25 µM
3. COc1ccc(C(Cc2ccccc2)C2NC(=S)NC2=O)cc1 (stereo not drawn) ... > 25 µM
4. O=C(N/C(=C\c1ccc(Br)cc1)c1nc2ccccc2[nH]1)c1ccccc1 ... 33.5 µM
5. COc1ccc(-c2cc(C(=O)Nc3cc(C(F)(F)F)cc(C(F)(F)F)c3)c3ccccc3n2)cc1 ... 15.5 µM

Input line: // returns reported TGI for input O=[N+]([O-])c1nccn1CC(O)CN1CCCCC1 (stereo not drawn)
Output line: > 100 µM

====

tested on: MOLT-4 leukemia; test: NCI tumour cell line growth inhibition, 48 h
OBSERVED_PROPERTY: TGI

1) Cc1cn(C2CC(CCCO)C(CO)O2)c(=O)[nH]c1=O (centres undefined) ... > 100 µM

Input line: // returns reported TGI for input COc1ccc(C(Cc2ccccc2)C2NC(=S)NC2=O)cc1 (centres undefined)
Output line: > 25 µM

Input line: CCc1cccc(C)c1N1C(=O)C(=O)C(c2nc3ccccc3o2)C(=O)C1=O ?
Output line: > 100 µM

Input line: c1cc(-c2nnc(SSc3ncnc4nc[nH]c34)o2)ccn1 ?
Output line: > 100 µM

Input line: O=C(O)/C=C\C(=O)Nc1ccccn1 ?
Output line: > 100 µM

Input line: CC(=O)NC1=C(NCCCl)C(=O)c2ccccc2C1=O ?
Output line: 75.5 µM

Input line: [O-][n+]1c(CN2CCCCC2)nc2cccc3c2c1-c1ccccc1-3 ?
Output line: > 100 µM

Input line: Cc1nnc2n(c1=O)CCN2C ?
Output line: > 100 µM

Input line: CCCC1C(=O)Nc2cccc3ncn(c23)C1=O (centres undefined) ?
Output line: > 100 µM

Input line: COC(=O)C1=C(O)C(C(=O)OC)[C@]2(O)[C@@H](C(=O)OC)[C@H]1C[C@@H](c1ccccc1)[C@@H]2C(=O)OC (some centres undefined) ?
Output line: 55.6 µM

Input line: CN(C)c1ccc(/C=C2\N=C(c3ccccc3)N(c3cc(C(F)(F)F)ccc3Cl)C2=O)cc1 ?
Output line: > 100 µM

Input line: Cc1ccc(S(=O)(=O)NC(=O)NC(CCCCN=C(N)N)C(=O)O)cc1 (centres undefined) ?
Output line: > 100 µM

Input line: O=c1[nH]c(=O)n(COCCO)c2ccsc12 ?
Output line: > 100 µM

Input line: COc1ccccc1N=Nc1c(O)c(S(=O)(=O)O)cc2cc(S(=O)(=O)O)ccc12 ?
Output line: > 100 µM

Input line: Cc1cccc2nc3c(=O)[nH]c(=O)nc-3n(C)c12 ?
Output line: > 100 µM

Input line: C[Si](C)(c1ccc(C(=O)O)cc1)c1ccc(C(=O)O)cc1 ?
Output line: > 100 µM

Input line: [O-][N+]1(CC[N+]2([O-])CCCCC2)CCCCC1 ?
Output line: > 100 µM

Input line: Cc1nc2n(c1/C=C1/C(=O)Nc3ccccc31)CCS2 ?
Output line: > 100 µM

Input line: O=C(Nc1ccc(-n2ccc3c(NC(=O)c4ccccc4)ncnc32)cc1)c1cccc(C(F)(F)F)c1 ?
Output line: 32.7 µM

Input line: Cc1c(OCc2ccccc2)c(=O)ccn1CCc1c[nH]c2ccccc12 ?
Output line: 31.9 µM

Input line: CCCCCCCC(=O)OCCCC1[C@]2(C)CC[C@@]3(C)C([C@H](C)CCC=C(C)C)CC[C@]3(C)C2CC[C@]12OC2(C)C (some centres undefined) ?
Output line: 57.1 µM

Data origin: PubChem BioAssay (NCI)
